Assay: Spectral characteristics: molar extinction coefficient and specific absorbance (UV spectrophotometry in ethyl acetate)
Format: physicochemical
Details: the 'at ...' part of the cell, 10 μg/ml
reported_property: Wavelength of maximum specific absorbance UVA

{"compound": "CCCCC(CC)COc1ccc(-c2nc(-c3ccc(OC)cc3)nc(-c3ccc(OCC(CC)CCCC)cc3O)n2)c(O)c1 (stereo not drawn) [Tinosorb S ®, reference compound]", "observed_measurement": "at 345 nm"}
{"compound": "CCCCCCCCCCCCc1ccc(-c2nnc(-c3ccc(-c4nnc(-c5ccc(CCCCCCCCCCCC)cc5)c(-c5ccc(CCCCCCCCCCCC)cc5)n4)cc3)nc2-c2ccc(CCCCCCCCCCCC)cc2)cc1", "observed_measurement": "at 335 nm"}
{"compound": "Cc1ccc(-c2nnc(-c3ccc(-c4nnc(-c5ccc(C)cc5)c(-c5ccc(C)cc5)n4)cc3)nc2-c2ccc(C)cc2)cc1", "observed_measurement": "at 335 nm"}
{"compound": "CC(C)(C)CC(C)(C)c1cc(Cc2cc(C(C)(C)CC(C)(C)C)cc(-n3nc4ccccc4n3)c2O)c(O)c(-n2nc3ccccc3n2)c1 [Tinosorb M ®, reference compound]", "observed_measurement": "at 345 nm"}
